target_system: T1, recombinant rat MASP1 active protease (amino acids 302-704, C-terminal His Tag) (rat, UniProt Q8CHN8 302-704)
T1 sequence: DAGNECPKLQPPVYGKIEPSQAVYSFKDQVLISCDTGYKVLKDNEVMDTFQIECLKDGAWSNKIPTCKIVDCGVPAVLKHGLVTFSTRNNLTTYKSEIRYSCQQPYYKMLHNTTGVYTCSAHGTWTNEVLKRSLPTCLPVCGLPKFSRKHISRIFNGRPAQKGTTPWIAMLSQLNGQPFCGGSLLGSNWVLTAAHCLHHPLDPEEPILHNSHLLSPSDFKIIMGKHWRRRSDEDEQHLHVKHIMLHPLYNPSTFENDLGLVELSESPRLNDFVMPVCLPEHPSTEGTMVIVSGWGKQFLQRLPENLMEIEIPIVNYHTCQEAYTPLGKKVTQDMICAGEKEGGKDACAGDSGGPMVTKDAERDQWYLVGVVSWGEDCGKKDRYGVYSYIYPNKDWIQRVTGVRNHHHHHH
test_description: cell-based or functional assay
Bridge positions count the residues as written; N and C are the ends. Square brackets hold non-standard residues; d marks the D form. Ends that are not written are not given here. Pro(3S,4R-methano) = O=C(O)[C@H]1NC[C@@H]2C[C@@H]21; NMeI = CC[C@H](C)[C@H](NC)C(=O)O; Pen = CC(C)(S)[C@H](N)C(=O)O; Sar = CNCC(=O)O
readout_type: rat MASP1 IC50 (µM)
Please state the figure in µM; there is no need to write the unit.

A[NMeI]CSRSLPPICIPD-NH2 (disulfide 3-11; N-terminus assumed; SMILES CC[C@H](C)[C@@H]1NC(=O)[C@@H]2CCCN2C(=O)[C@@H]2CCCN2C(=O)[C@H](CC(C)C)NC(=O)[C@H](CO)NC(=O)[C@H](CCCNC(=N)N)NC(=O)[C@H](CO)NC(=O)[C@@H](NC(=O)[C@H]([C@@H](C)CC)N(C)C(=O)[C@H](C)N)CSSC[C@@H](C(=O)N[C@H](C(=O)N2CCC[C@H]2C(=O)N[C@@H](CC(=O)O)C(N)=O)[C@@H](C)CC)NC1=O) [Example 260: A-((N-Me)I)-C+SRSLPPIC+IPD-NH2]: 0.16

For the next question, use this binder.
## Task Name the reported rat MASP1 IC50 value associated with the binder [Sar]ICSRSL[Pro(3S,4R-methano)]PI[Pen]IPE-NH2 (disulfide 3-11; N-terminus assumed; SMILES CC[C@H](C)[C@H](NC(=O)CNC)C(=O)N[C@H]1CSSC(C)(C)[C@@H](C(=O)N[C@H](C(=O)N2CCC[C@H]2C(=O)N[C@@H](CCC(=O)O)C(N)=O)[C@@H](C)CC)NC(=O)[C@H]([C@@H](C)CC)NC(=O)[C@@H]2CCCN2C(=O)[C@@H]2[C@H]3C[C@H]3CN2C(=O)[C@H](CC(C)C)NC(=O)[C@H](CO)NC(=O)[C@H](CCCNC(=N)N)NC(=O)[C@H](CO)NC1=O)
## Result 0.067
